SYSTEM: UniProt Q99683
ASSAY NAME: ASK1 (Apoptosis Signal-Regulating Kinase 1) TR-FRET Kinase Assay (Biochemical IC50)
pIC50: −log10 of the molar value.
METRIC: pIC50

SMILES INPUT: Cc1ccc2c(-c3ccc(C4CC4)nc3)cc(C(=O)Nc3cccc(-c4nncn4C4CC4)c3)nc2c1C
pIC50: 6.65
--
SMILES INPUT: C[C@@H](O)Cn1cnnc1-c1cccc(NC(=O)c2cc(-c3cccnc3)ccn2)c1
pIC50: 6.71

###

SYSTEM: ASK1 (Apoptosis Signal-Regulating Kinase 1) (Homo sapiens (Human), UniProt Q99683)
Sequence (Q99683 649-946): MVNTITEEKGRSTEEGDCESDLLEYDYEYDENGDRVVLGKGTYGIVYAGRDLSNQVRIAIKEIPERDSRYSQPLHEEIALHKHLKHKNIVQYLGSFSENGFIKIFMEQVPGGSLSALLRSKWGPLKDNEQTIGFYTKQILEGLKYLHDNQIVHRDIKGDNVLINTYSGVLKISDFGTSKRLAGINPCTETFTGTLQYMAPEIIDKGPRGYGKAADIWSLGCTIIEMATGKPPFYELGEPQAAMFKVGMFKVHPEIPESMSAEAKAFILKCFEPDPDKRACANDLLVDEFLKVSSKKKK
ASSAY NAME: ASK1 (Apoptosis Signal-Regulating Kinase 1) TR-FRET Kinase Assay (Biochemical IC50)
TEST CONTEXT: TR-FRET, biotin-MBP substrate, 20 min pre-incubation, ATP added as 300 μM solution
pIC50: −log10 of the molar value.
METRIC: pIC50

COMPOUND: C[C@@H](C(=O)OC(C)(C)C)n1cnnc1-c1cccc(NC(=O)c2cc(-c3ccc(C4CC4)nc3)ccn2)c1
pIC50: 7.10
//
COMPOUND: CCC(CC)n1cnnc1-c1cccc(NC(=O)c2cc(-c3ccc(C4CC4)nc3)ccn2)c1
pIC50: 5.85

[I] COC(c1cn(-c2cccc(C(=O)Nc3cccc(-c4nncn4C4CC4)n3)c2)cn1)C(F)(F)F (stereo not shown)
[II] CCN1CCN(c2ccnc(C(=O)Nc3cccc(-c4nncn4C4CC4)n3)c2)CC1=O
[III] CN1CCC(n2cnnc2-c2cccc(NC(=O)c3cc(-c4ccc(C5CC5)nc4)ccn3)n2)CC1
[IV] O=C(Nc1cccc(-c2nncn2C2CC2)c1)c1cc(-n2cnc3cnccc32)ccn1
[V] Cc1noc(-c2ccnc(C(=O)Nc3cccc(-c4nncn4C4CC4)c3)c2)n1
Enquiry: # ascending order, key=pIC50 Answer format: list of labels, ordered as asked.
Return: V, III, IV, I, II
(V: 5.46, III: 6.21, IV: 7.28, I: 7.82, II: 8.15)

[I] CCc1cc(-c2ccnc(C(=O)Nc3cccc(-c4nncn4C4CC4)c3)c2)cnc1CC
[II] CC(C)c1cn(-c2ccnc(C(=O)Nc3cccc(-c4nncn4C4CC4)n3)c2)cn1
[III] Cn1c(-c2ccnc(C(=O)Nc3cccc(-c4nncn4C4CC4)c3)c2)nnc1C1CC1
[IV] O=C(Nc1cccc(-c2nncn2C2CC2)c1)c1cccc(-c2ccc(C3CC3)nc2)n1
[V] O=C(Nc1cccc(-c2nncn2C2CC2)c1)c1cc(-c2ccc(O)nc2)ccn1
Enquiry: # ascending order, key=pIC50 Answer format: list of labels, ordered as asked.
Return: IV, III, V, I, II

[I] O=C(Nc1cccc(-c2nncn2C2CC2)c1)c1cc(-c2cncc(C3CC3)c2)ccn1
[II] C[C@H](n1cnnc1-c1cccc(NC(=O)c2cc(-c3cccnc3)ccn2)c1)C(F)(F)F
[III] Cn1cncc1-c1ccnc(C(=O)Nc2cccc(-c3nncn3C)c2)c1
Enquiry: # ascending order, key=pIC50 Answer format: list of labels, ordered as asked.
Return: III, II, I
(III: 7.41, II: 7.68, I: 7.96)

###

SYSTEM: ASK1 (Apoptosis Signal-Regulating Kinase 1) (Homo sapiens (Human))
ASSAY NAME: ASK1 (Apoptosis Signal-Regulating Kinase 1) TR-FRET Kinase Assay (Biochemical IC50)
TEST CONTEXT: TR-FRET, biotin-MBP substrate, 20 min pre-incubation, ATP added as 300 μM solution
METRIC: IC50 (nM)

[1] Cc1nc(C2CC2)cn1-c1ccnc(C(=O)Nc2cccc(-c3nncn3C3CC3)n2)c1
[2] Cn1cncc1-c1ccnc(C(=O)Nc2cccc(-c3nncn3C3CC3)c2)c1
Enquiry: Of the two listed items, 1 and 2 , which carries the larger IC50 figure? Please indicate the selected item by its label.
Return: 2
(2: 18 nM, 1: 8 nM)

###

SYSTEM: ASK1 (Apoptosis Signal-Regulating Kinase 1) (Homo sapiens (Human))
ASSAY NAME: ASK1 (Apoptosis Signal-Regulating Kinase 1) TR-FRET Kinase Assay (Biochemical IC50)
TEST CONTEXT: TR-FRET, biotin-MBP substrate, 20 min pre-incubation, ATP added as 300 μM solution
METRIC: IC50 (µM)

Recorded IC50, per entry:
SMILES INPUT: O=C(Nc1cccc(-c2nncn2C2CC2)c1)c1cc(-c2cnc3ccoc3c2)ccn1
UNITS TEXT: µM
ENDPOINT RESULT: 0.011
//
SMILES INPUT: O=C(Nc1cccc(-c2nncn2C2CC2)c1)c1cc(-n2ccnc2)ccn1
UNITS TEXT: µM
ENDPOINT RESULT: 0.011

[A] O=C(Nc1cccc(-c2nncn2C2CC2)c1)c1cc(-c2ccc(S(=O)(=O)NC3CC3)cc2)ccn1
[B] O=C(Nc1cccc(-c2nncn2C2CC2)c1)c1cc(-n2cnc(C(F)(F)F)c2)ccn1
Enquiry: Please compare: A and B . Report which one has the smaller IC50 value. Please indicate the selected item by its label.
Return: A

###

SYSTEM: ASK1 (Apoptosis Signal-Regulating Kinase 1) (Homo sapiens (Human))
ASSAY NAME: ASK1 (Apoptosis Signal-Regulating Kinase 1) TR-FRET Kinase Assay (Biochemical IC50)
TEST CONTEXT: TR-FRET, biotin-MBP substrate, 20 min pre-incubation, ATP added as 300 μM solution
pIC50: −log10 of the molar value.
METRIC: pIC50

Recorded pIC50, per entry:
MOLECULE: Cc1ncc(-c2ccnc(C(=O)Nc3cccc(-c4nncn4C4CC4)c3)c2)n1C
pIC50: 7.96
--
MOLECULE: O=C(Nc1cccc(-c2nncn2C2CC2)c1)c1cc(-c2ccccc2)ccn1
pIC50: 6.55
--
MOLECULE: CCc1cn(-c2ccnc(C(=O)Nc3cccc(-c4nncn4C4CC4)c3)c2)cn1
pIC50: 8.30
--
MOLECULE: C[C@H]1C[C@@H]1n1cnnc1-c1cccc(NC(=O)c2cc(-c3cccnc3)ccn2)c1
pIC50: 7.62
--
MOLECULE: O=C(Nc1cccc(-c2cncn2C2CC2)n1)c1cc(-c2ccc(C3CC3)nc2)ccn1
pIC50: 6.68
--
MOLECULE: O=C(Nc1cccc(-c2nncn2C2CC2)n1)c1cc(-c2cnc3ccccc3c2)ccn1
pIC50: 7.85
--
MOLECULE: NC(=O)c1cncc(-c2ccnc(C(=O)Nc3cccc(-c4nncn4C4CC4)c3)c2)c1
pIC50: 7.77
--
MOLECULE: O=C(Nc1cccc(-c2nncn2C2CC2)c1)c1cc(-c2cnc3ccccn23)ccn1
pIC50: 7.96

[I] O=C(Nc1cccc(-c2nncn2C2CC2)c1)c1cc(-n2cnc3c2CCNC3C(F)(F)F)ccn1 (stereo not drawn)
[II] O=C(Nc1cccc(-c2nncn2C2CC2)c1)c1cc(-n2cnc3cccnc32)ccn1
[III] O=C(Nc1cccc(-c2nncn2C2CC2)n1)c1cc(-c2cccnc2)ccn1
[IV] O=C(Nc1cccc(-c2nncn2C2CCCC2)c1)c1cc(-c2cccnc2)ccn1
Enquiry: # ascending order, key=pIC50 Answer format: list of labels, ordered as asked.
Return: IV, II, I, III

[1] Nc1ccc(-c2ccnc(C(=O)Nc3cccc(-c4nncn4C4CC4)c3)c2)cn1
[2] CC(C)(C)Cc1ccc(-c2ccnc(C(=O)Nc3cccc(-c4nncn4C4CC4)c3)c2)cn1
Enquiry: Please compare: 1 and 2 . Report which one has the smaller pIC50 value. Please indicate the selected item by its label.
Return: 2
(2: 7.82, 1: 8.05)

[A] O=C(Nc1cccc(-c2nncn2C2CC2)c1)c1cc(-c2ccc(C(F)(F)F)nc2)ccn1
[B] Cn1cnnc1-c1cccc(NC(=O)c2cc(N3CCNC(=O)C3)ccn2)c1
Enquiry: Of the two listed items, A and B , which carries the larger pIC50 figure? Please indicate the selected item by its label.
Return: A

###

SYSTEM: ASK1 (Apoptosis Signal-Regulating Kinase 1) (Homo sapiens (Human), UniProt Q99683)
ASSAY NAME: ASK1 (Apoptosis Signal-Regulating Kinase 1) TR-FRET Kinase Assay (Biochemical IC50)
TEST CONTEXT: TR-FRET, biotin-MBP substrate, 20 min pre-incubation, ATP added as 300 μM solution
METRIC: IC50 (nM)

COMPOUND: Cc1cnc(C(=O)Nc2cccc(-c3nncn3C3CC3)n2)cc1-c1ccc(C2CC2)nc1 [Example 215]
SYSTEM: ASK1 (Apoptosis Signal-Regulating Kinase 1) (Homo sapiens (Human), UniProt Q99683)
METRIC: IC50
ENDPOINT RESULT: 30
--
COMPOUND: Cc1ccc(-n2cnc(C3CC3)c2)cc1C(=O)Nc1cccc(-c2nncn2C2CC2)n1 [Example 197]
SYSTEM: ASK1 (Apoptosis Signal-Regulating Kinase 1) (Homo sapiens (Human), UniProt Q99683)
METRIC: IC50
ENDPOINT RESULT: 47
--
COMPOUND: Cn1cnnc1-c1cccc(NC(=O)c2cc(N3CCC(N)C3)ccn2)c1 (stereo not drawn) [Example 33]
SYSTEM: ASK1 (Apoptosis Signal-Regulating Kinase 1) (Homo sapiens (Human), UniProt Q99683)
METRIC: IC50
ENDPOINT RESULT: 3480

[1] O=C(Nc1cccc(-c2nncn2C2CC2)c1)c1cc(-c2cnc3[nH]ccc3c2)ccn1 [Example 92]
[2] CC(c1ccccc1)n1cnnc1-c1cccc(NC(=O)c2cc(-n3cnc(C4CC4)c3)ccn2)c1 (stereo not drawn) [Example 186]
[3] O=C(Nc1cccc(-c2nncn2C2CC2)c1)c1cc(-c2cncnc2)ccn1 [Example 24]
[4] Cn1cnnc1-c1cccc(NC(=O)c2cc(N3CCOCC3)ccn2)c1 [Example 30]
[5] O=C(Nc1cccc(-c2nncn2C2CC2)n1)c1cc(-n2cnc(C(F)(F)C(F)(F)F)c2)ccn1 [Example 199]
Enquiry: Order the items by recorded IC50; the first position goes to the largest value. Answer format: list of labels, ordered as asked.
Return: 4, 2, 3, 1, 5
(4: 335 nM, 2: 30 nM, 3: 21 nM, 1: 13 nM, 5: 9 nM)
